- System: Plasmodium falciparum NF54 stage V gametocytes
- assay-name: viability index relative to DMSO control (fraction); higher = less gametocyte killing
- measurement-conditions: 2.5 µM, library set: Broad Institute DOS, incubation time: 72 h
Over roughly 9,900 compounds, “viability index relative to DMSO control” has its median near 1; the lowest 2% begin near 0.85. The entries come from a sample that favours the lowest values as a whole.
assay-readout: viability index
One number for each entry.

Sample answers from the record:
                            smiles_notation  observed_measurement
0  C/C=C/c1ccc([C@@H]2[C@@H]3CN(C(=O)C4CCOCC4)C[C@H]2N3)cc1                  1.06
1  O=C(O)C[C@@H]1CC[C@H]2NC[C@@H](O)COC[C@@H]2O1                  1.13
2  O=C(Cc1ccncc1)N1CCCCN2[C@@H](CO)[C@H](c3ccc(C#Cc4ccccc4F)cc3)[C@@H]2C1                  0.84

Report viability index for each item below.
1. O=C1CNC[C@H]2[C@H](c3ccc(Br)cc3)[C@H](CO)N12
2. O=C1CNC[C@H]2[C@@H](c3ccc(Br)cc3)[C@H](CO)N12

[1.05, 0.837]
